Items are presented alongside their recorded remaining at 100 h, 10 μM.
- measurementDescription: Serum stability assay in human serum (LC/MS)
- conditionLabel: human, Remaining peptide (%), 37 °C, incubation time 100 h, relative to 0 h = 100%, technical replicates
Numbered stars: 1 amine (or outer) side, 2 acyl side, 3 side chain; on linkers, the order of the positions; unused ones are H or OH. Bridge positions count the residues as written; N and C are the ends. Square brackets hold non-standard residues; d marks the D form. Peptide text beside a SMILES is read from it. Acbc(cis-1,3) = O=C([C@H]1C[C@@H](N[*:1])C1)[*:2]; X1 = O=C([C@@H]1CC[C@H](N[*:1])C1)[*:2]
Give just the numeric value; % need not be written.

Worked examples follow.
# molecule, unitLabel, value
rows = [
    ("CC(C)C[C@@H]1NC(=O)[C@H](CC(N)=O)NC(=O)[C@H](CC(C)C)NC(=O)[C@H]2C[C@H](C2)NC(=O)[C@H](Cc2c[nH]cn2)NC(=O)[C@H](Cc2ccccc2)NC(=O)[C@@H](Cc2ccc(O)cc2)NC(=O)CSC[C@H](C(N)=O)NC(=O)CNC(=O)[C@@H]2CCCN2C(=O)[C@H](CCCNC(=N)N)NC(=O)[C@H](Cc2ccc(O)cc2)NC(=O)CNC1=O [GM4] ({CH2CO}-[dY]FH[Acbc(cis-1,3)]LNLGYRPG[dC]-NH2; thioether N-13)", "%", 55.7),
    ("CC[C@H](C)[C@@H]1NC(=O)[C@H](Cc2ccc(O)cc2)NC(=O)[C@H](CC(C)C)NC(=O)[C@H](CC(=O)O)NC(=O)[C@H](CCCNC(=N)N)NC(=O)[C@H](Cc2ccccc2)NC(=O)[C@@H]2CC[C@@H](C2)NC(=O)[C@H](Cc2c[nH]cn2)NC(=O)[C@H](Cc2ccccc2)NC(=O)[C@@H](Cc2ccc(O)cc2)NC(=O)CSC[C@H](C(N)=O)NC(=O)CNC(=O)[C@H](CC(C)C)NC1=O [GM5] ({CH2CO}-[dY]FH[X1]FRDLYILG[dC]-NH2; thioether N-13)", "%", 19.9),
    ("CC(C)C[C@@H]1NC(=O)[C@H](CC(N)=O)NC(=O)[C@H](CC(C)C)NC(=O)[C@H]2C[C@H](C2)NC(=O)[C@H](CCC(N)=O)NC(=O)[C@H](Cc2ccccc2)NC(=O)[C@@H](Cc2ccc(O)cc2)NC(=O)CSC[C@H](C(N)=O)NC(=O)CNC(=O)[C@@H]2CCCN2C(=O)[C@H](CCCNC(=N)N)NC(=O)[C@H](Cc2ccc(O)cc2)NC(=O)CNC1=O [GM4H3Q] ({CH2CO}-[dY]FQ[Acbc(cis-1,3)]LNLGYRPG[dC]-NH2; thioether N-13)", "%", 44.2),
    ("CC(C)C[C@@H]1NC(=O)[C@H]([C@@H](C)O)NC(=O)[C@H](Cc2ccc(O)cc2)NC(=O)[C@H]([C@@H](C)O)NC(=O)[C@H](Cc2c[nH]cn2)NC(=O)[C@@H]2CCCN2C(=O)[C@@H]2CCCN2C(=O)[C@H](Cc2ccccc2)NC(=O)[C@H]2C[C@H](C2)NC(=O)[C@H](Cc2c[nH]cn2)NC(=O)[C@H](Cc2ccccc2)NC(=O)[C@@H](Cc2ccc(O)cc2)NC(=O)CSC[C@H](C(N)=O)NC1=O [GM1] ({CH2CO}-[dY]FH[Acbc(cis-1,3)]FPPHTYTL[dC]-NH2; thioether N-13)", "%", 49),
]

Query :: In one line, give reported remaining at 100 h, 10 μM of the entry CC[C@H](C)[C@@H]1NC(=O)[C@H](Cc2ccc(O)cc2)NC(=O)[C@H](CC(C)C)NC(=O)[C@H](CC(=O)O)NC(=O)[C@H](CCCNC(=N)N)NC(=O)[C@H](Cc2ccccc2)NC(=O)[C@H](C)NC(=O)[C@H](Cc2c[nH]cn2)NC(=O)[C@H](Cc2ccccc2)NC(=O)[C@@H](Cc2ccc(O)cc2)NC(=O)CSC[C@H](C(N)=O)NC(=O)CNC(=O)[C@H](CC(C)C)NC1=O [GM5γ^24A] ({CH2CO}-[dY]FHAFRDLYILG[dC]-NH2; thioether N-13) .
Result :: 7.6

###

- systemTested: SARS-CoV-2 M^pro (Severe acute respiratory syndrome coronavirus 2, UniProt P0DTD1)
- measurementDescription: biochemical
- Type: biochemical
Bridge positions count the residues as written; N and C are the ends. Square brackets hold non-standard residues; d marks the D form. Peptide text beside a SMILES is read from it.
propertyName: inhibition at 16.6 µM

Query :: Provide one value: measured inhibition at 16.6 µM of CC(C)C[C@@H]1NC(=O)[C@H](C)NC(=O)[C@H](Cc2c[nH]cn2)NC(=O)[C@H](Cc2ccccc2)NC(=O)[C@@H](Cc2ccc(O)cc2)NC(=O)CSC[C@H](C(N)=O)NC(=O)CNC(=O)[C@@H]2CCCN2C(=O)[C@H](CCCNC(=N)N)NC(=O)[C@H](Cc2ccc(O)cc2)NC(=O)CNC(=O)[C@H](CC(C)C)NC(=O)[C@H](CC(N)=O)NC1=O [GM4γ^14A] ({CH2CO}-[dY]FHALNLGYRPG[dC]-NH2; thioether N-13)
Result :: 100%

###

We begin with a simple list: items and their reported remaining at 24 h, 10 μM.
- measurementDescription: Serum stability assay in human serum (LC/MS)
- conditionLabel: human, Remaining peptide (%), 37 °C, incubation time 24 h, relative to 0 h = 100%, technical replicates
Numbered stars: 1 amine (or outer) side, 2 acyl side, 3 side chain; on linkers, the order of the positions; unused ones are H or OH. Bridge positions count the residues as written; N and C are the ends. Square brackets hold non-standard residues; d marks the D form. Peptide text beside a SMILES is read from it. Acbc(cis-1,3) = O=C([C@H]1C[C@@H](N[*:1])C1)[*:2]
I only need the number, in %, no unit after it.

Query :: Query remaining at 24 h, 10 μM for CC[C@H](C)[C@@H]1NC(=O)[C@H](Cc2ccc(O)cc2)NC(=O)[C@H](CC(C)C)NC(=O)[C@H](CC(=O)O)NC(=O)[C@H](CCCNC(=N)N)NC(=O)[C@H](Cc2ccccc2)NC(=O)[C@H](C)NC(=O)[C@H](Cc2c[nH]cn2)NC(=O)[C@H](Cc2ccccc2)NC(=O)[C@@H](Cc2ccc(O)cc2)NC(=O)CSC[C@H](C(N)=O)NC(=O)CNC(=O)[C@H](CC(C)C)NC1=O [GM5γ^24A] ({CH2CO}-[dY]FHAFRDLYILG[dC]-NH2; thioether N-13)
Result :: 45.5

Query :: Give a short answer stating reported remaining at 24 h, 10 μM for CC(C)C[C@@H]1NC(=O)[C@H]([C@@H](C)O)NC(=O)[C@H](Cc2ccc(O)cc2)NC(=O)[C@H]([C@@H](C)O)NC(=O)[C@H](Cc2c[nH]cn2)NC(=O)[C@@H]2CCCN2C(=O)[C@@H]2CCCN2C(=O)[C@H](Cc2ccccc2)NC(=O)[C@H]2C[C@H](C2)NC(=O)[C@H](Cc2c[nH]cn2)NC(=O)[C@H](Cc2ccccc2)NC(=O)[C@@H](Cc2ccc(O)cc2)NC(=O)CSC[C@H](C(N)=O)NC1=O [GM1] ({CH2CO}-[dY]FH[Acbc(cis-1,3)]FPPHTYTL[dC]-NH2; thioether N-13) .
Result :: 77.3

###

remaining at 4 h, 10 μM values by entry
- measurementDescription: Serum stability assay in human serum (LC/MS)
- conditionLabel: human, Remaining peptide (%), 37 °C, incubation time 4 h, relative to 0 h = 100%, technical replicates
Numbered stars: 1 amine (or outer) side, 2 acyl side, 3 side chain; on linkers, the order of the positions; unused ones are H or OH. Bridge positions count the residues as written; N and C are the ends. Square brackets hold non-standard residues; d marks the D form. Peptide text beside a SMILES is read from it. Acbc(cis-1,3) = O=C([C@H]1C[C@@H](N[*:1])C1)[*:2]; X1 = O=C([C@@H]1CC[C@H](N[*:1])C1)[*:2]
Report the value in % with no unit label.

# compound, unitLabel, remaining at 4 h, 10 μM
measured = [
    ("CC(C)C[C@@H]1NC(=O)[C@H](CC(N)=O)NC(=O)[C@H](CC(C)C)NC(=O)[C@H]2C[C@H](C2)NC(=O)[C@H](Cc2c[nH]cn2)NC(=O)[C@H](Cc2ccccc2)NC(=O)[C@@H](Cc2ccc(O)cc2)NC(=O)CSC[C@H](C(N)=O)NC(=O)CNC(=O)[C@@H]2CCCN2C(=O)[C@H](CCCNC(=N)N)NC(=O)[C@H](Cc2ccc(O)cc2)NC(=O)CNC1=O [GM4] ({CH2CO}-[dY]FH[Acbc(cis-1,3)]LNLGYRPG[dC]-NH2; thioether N-13)", "%", 95.7),
    ("CC(C)C[C@@H]1NC(=O)[C@@H](Cc2ccc(O)cc2)NC(=O)CSC[C@H](C(N)=O)NC(=O)[C@H](C)NC(=O)[C@H](C)NC(=O)[C@H](Cc2ccc(O)cc2)NC(=O)[C@H](CCCNC(=N)N)NC(=O)[C@H](Cc2ccc(O)cc2)NC(=O)[C@H](C)NC(=O)[C@H](CO)NC(=O)[C@H](Cc2ccc(O)cc2)NC(=O)[C@H]([C@@H](C)O)NC(=O)[C@H](CO)NC(=O)[C@H](C)NC(=O)[C@H](Cc2ccc(O)cc2)NC(=O)[C@H](Cc2c[nH]cn2)NC1=O [GM3γ^210A] ({CH2CO}-[dY]LHYASTYSAYRYAA[dC]-NH2; thioether N-16)", "%", 7.23),
    ("CC(C)C[C@@H]1NC(=O)[C@@H](Cc2ccc(O)cc2)NC(=O)CSC[C@H](C(N)=O)NC(=O)[C@H](C)NC(=O)[C@H](C)NC(=O)[C@H](Cc2ccc(O)cc2)NC(=O)[C@H](CCCNC(=N)N)NC(=O)[C@H](Cc2ccc(O)cc2)NC(=O)[C@@H]2CC[C@@H](C2)NC(=O)[C@H](CO)NC(=O)[C@H](Cc2ccc(O)cc2)NC(=O)[C@H]([C@@H](C)O)NC(=O)[C@H](CO)NC(=O)[C@H](C)NC(=O)[C@H](Cc2ccc(O)cc2)NC(=O)[C@H](Cc2c[nH]cn2)NC1=O [GM3] ({CH2CO}-[dY]LHYASTYS[X1]YRYAA[dC]-NH2; thioether N-16)", "%", 45.6),
]

In the following, a different compound is considered.
Query :: Indicate the recorded remaining at 4 h, 10 μM value for this compound: CC(C)C[C@@H]1NC(=O)[C@H]([C@@H](C)O)NC(=O)[C@H](Cc2ccc(O)cc2)NC(=O)[C@H]([C@@H](C)O)NC(=O)[C@H](Cc2c[nH]cn2)NC(=O)[C@@H]2CCCN2C(=O)[C@@H]2CCCN2C(=O)[C@H](Cc2ccccc2)NC(=O)[C@H](C)NC(=O)[C@H](Cc2c[nH]cn2)NC(=O)[C@H](Cc2ccccc2)NC(=O)[C@@H](Cc2ccc(O)cc2)NC(=O)CSC[C@H](C(N)=O)NC1=O [GM1γ^14A] ({CH2CO}-[dY]FHAFPPHTYTL[dC]-NH2; thioether N-13)
Result :: 63.2
